biological target: PI3Kδ (p110δ/p85α) (Homo sapiens, UniProt O00329); construct: purchased Millipore (Bedford, Mass.); test: PI3Kδ scintillation proximity assay; type: biochemical
Sequence (O00329 whole entry): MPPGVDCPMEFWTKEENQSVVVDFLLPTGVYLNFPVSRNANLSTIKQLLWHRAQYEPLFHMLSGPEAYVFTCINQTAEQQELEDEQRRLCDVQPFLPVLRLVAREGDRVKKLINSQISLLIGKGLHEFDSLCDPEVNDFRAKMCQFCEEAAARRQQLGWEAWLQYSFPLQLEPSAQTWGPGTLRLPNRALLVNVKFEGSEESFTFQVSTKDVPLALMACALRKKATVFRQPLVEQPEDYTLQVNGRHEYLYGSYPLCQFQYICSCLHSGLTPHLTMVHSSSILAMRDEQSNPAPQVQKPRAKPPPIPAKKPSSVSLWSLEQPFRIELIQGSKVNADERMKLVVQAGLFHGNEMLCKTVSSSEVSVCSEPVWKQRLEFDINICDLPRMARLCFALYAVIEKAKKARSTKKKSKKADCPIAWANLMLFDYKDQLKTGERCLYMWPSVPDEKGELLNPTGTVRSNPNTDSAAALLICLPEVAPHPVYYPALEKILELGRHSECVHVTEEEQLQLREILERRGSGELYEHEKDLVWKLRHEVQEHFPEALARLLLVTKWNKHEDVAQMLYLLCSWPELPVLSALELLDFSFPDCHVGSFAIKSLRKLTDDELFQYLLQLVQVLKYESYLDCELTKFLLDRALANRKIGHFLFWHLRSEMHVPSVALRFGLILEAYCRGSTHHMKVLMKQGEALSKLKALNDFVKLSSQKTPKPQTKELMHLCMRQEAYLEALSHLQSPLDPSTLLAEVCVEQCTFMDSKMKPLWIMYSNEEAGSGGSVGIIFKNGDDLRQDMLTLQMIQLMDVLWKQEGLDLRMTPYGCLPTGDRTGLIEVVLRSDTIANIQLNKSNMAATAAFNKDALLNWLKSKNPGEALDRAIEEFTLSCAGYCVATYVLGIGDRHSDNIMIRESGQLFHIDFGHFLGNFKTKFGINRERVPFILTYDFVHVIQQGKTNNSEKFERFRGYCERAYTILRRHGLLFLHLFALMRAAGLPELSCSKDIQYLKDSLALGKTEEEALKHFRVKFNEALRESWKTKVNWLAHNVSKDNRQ
Sequence (P27986 whole entry partner): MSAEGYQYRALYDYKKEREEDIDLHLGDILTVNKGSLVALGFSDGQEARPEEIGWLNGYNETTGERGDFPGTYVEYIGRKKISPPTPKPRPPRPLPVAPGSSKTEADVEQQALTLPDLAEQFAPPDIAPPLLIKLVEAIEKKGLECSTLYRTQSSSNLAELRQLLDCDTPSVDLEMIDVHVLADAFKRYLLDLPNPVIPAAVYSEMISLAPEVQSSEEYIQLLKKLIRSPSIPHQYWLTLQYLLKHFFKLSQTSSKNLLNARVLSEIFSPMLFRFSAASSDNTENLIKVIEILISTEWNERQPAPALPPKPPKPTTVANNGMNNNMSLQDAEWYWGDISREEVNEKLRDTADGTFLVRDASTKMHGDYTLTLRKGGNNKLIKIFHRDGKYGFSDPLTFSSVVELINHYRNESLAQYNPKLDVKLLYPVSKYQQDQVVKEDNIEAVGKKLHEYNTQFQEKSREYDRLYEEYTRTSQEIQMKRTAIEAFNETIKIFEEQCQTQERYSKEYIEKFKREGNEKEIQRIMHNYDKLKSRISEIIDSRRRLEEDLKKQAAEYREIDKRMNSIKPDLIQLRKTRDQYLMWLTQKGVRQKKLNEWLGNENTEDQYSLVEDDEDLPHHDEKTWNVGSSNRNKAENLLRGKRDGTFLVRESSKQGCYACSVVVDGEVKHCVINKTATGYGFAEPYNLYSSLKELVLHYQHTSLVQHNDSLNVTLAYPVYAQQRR
pIC50: −log10 of the molar value. Counter-ions that a name gives are not always drawn.
Consider the following compounds and their measured pIC50 readings.

// known answers, use as guide
{"compound": "COc1ccc(-c2c(C(C)Nc3ncnc4[nH]cnc34)cc(Cl)c3ccnnc23)cc1F (centres unmarked)", "target.or.test.system": "PI3Kδ (p110δ/p85α) (Homo sapiens, UniProt O00329)", "readout.label": "pIC50", "experimental.result": "6.00 to 6.30"}
{"compound": "CC(Nc1ncnc2[nH]cnc12)c1cc(Cl)c2cccnc2c1N1CCN(C(=O)c2ccncc2)CC1 (centres unmarked) [Example 98, tris(trifluoroacetate)]", "target.or.test.system": "PI3Kδ (p110δ/p85α) (Homo sapiens, UniProt O00329)", "readout.label": "pIC50", "experimental.result": "> 7.30"}
{"compound": "CC(Nc1nc(N)nc2[nH]cnc12)c1ccc2ccccc2c1-c1cncc(F)c1 (centres unmarked) [Example 3, bis-trifluoroacetate]", "target.or.test.system": "PI3Kδ (p110δ/p85α) (Homo sapiens, UniProt O00329)", "readout.label": "pIC50", "experimental.result": "> 7.30"}
{"compound": "CC(Nc1ncnc2[nH]cnc12)c1cc(Cl)c2ccnnc2c1-c1ccccc1F (single isomer, unassigned) [Example 26]", "target.or.test.system": "PI3Kδ (p110δ/p85α) (Homo sapiens, UniProt O00329)", "readout.label": "pIC50", "experimental.result": "6.30 to 6.60"}
{"compound": "Cc1nc2c(-c3cccc(F)c3)c(C(C)Nc3ncnc4[nH]cnc34)ccc2s1 (centres unmarked) [Example 2, trifluoroacetate]", "target.or.test.system": "PI3Kδ (p110δ/p85α) (Homo sapiens, UniProt O00329)", "readout.label": "pIC50", "experimental.result": "< 6.00"}

# return pIC50 of COC(=O)N1CCN(c2c(C(C)Nc3ncnc4[nH]cnc34)cc(Cl)c3cccnc23)CC1 (centres unmarked) (system: PI3Kδ (p110δ/p85α) (Homo sapiens, UniProt O00329))
> 7.30

# return pIC50 of CC(Nc1ncnc2[nH]cnc12)c1cc(Cl)c2ccnnc2c1-c1ccccc1F (single isomer, unassigned) [Example 27] (system: PI3Kδ (p110δ/p85α) (Homo sapiens, UniProt O00329))
7.00 to 7.30

# return pIC50 of Cc1cc(C(C)Nc2ncnc3[nH]cnc23)c(-c2cccc(F)c2)c2nnccc12 (single isomer, unassigned) [Example 36] (system: PI3Kδ (p110δ/p85α) (Homo sapiens, UniProt O00329))
> 7.30

# return pIC50 of Cc1cc(C(C)Nc2ncnc3[nH]cnc23)c(-c2cccc(F)c2)c2nnccc12 (single isomer, unassigned) [Example 37] (system: PI3Kδ (p110δ/p85α) (Homo sapiens, UniProt O00329))
6.00 to 6.30

# return pIC50 of CC(Nc1ncnc2[nH]cnc12)c1cc(F)c2ccnnc2c1-c1cc(F)cc(F)c1 (single isomer, unassigned) [Example 29, trifluoroacetate] (system: PI3Kδ (p110δ/p85α) (Homo sapiens, UniProt O00329))
6.60 to 7.00

# return pIC50 of CC(Nc1ncnc2[nH]cnc12)c1ccc2ccccc2c1-c1cccc(F)c1 (centres unmarked) [Example 1, trifluoroacetate] (system: PI3Kδ (p110δ/p85α) (Homo sapiens, UniProt O00329))
6.60 to 7.00

# return pIC50 of Cc1cc(C(=O)N2CCN(c3c(C(C)Nc4ncnc5[nH]cnc45)cc(Cl)c4cccnc34)CC2)no1 (centres unmarked) [Example 99, bis(trifluoroacetate)] (system: PI3Kδ (p110δ/p85α) (Homo sapiens, UniProt O00329))
> 7.30

# return pIC50 of CCC(Nc1ncnc2[nH]cnc12)c1cc(Cl)c2ccnnc2c1-c1cccc(F)c1 (single isomer, unassigned) [Example 33] (system: PI3Kδ (p110δ/p85α) (Homo sapiens, UniProt O00329))
> 7.30

# return pIC50 of CC(Nc1ncnc2[nH]cnc12)c1cc(Cl)c2cccnc2c1N1CCC(Oc2ccccc2)CC1 (centres unmarked) [Example 75, bis(trifluoroacetate)] (system: PI3Kδ (p110δ/p85α) (Homo sapiens, UniProt O00329))
< 6.00

From: patent US8680108B2
